- Study system: human 15-PGDH (Homo sapiens)
- Construct: comprising residues 3–256 of the human HPGD gene (GenBank identifier: 1203982); His6 (GHHHHHH, behind the TEV site) (C, cleaved yes); made in house; host or cells: E. coli BL21(DE3)-R3
- Experiment summary: Differential scanning fluorimetry (DSF), thermal stabilization
- Assay type: binding
- Condition label: without cofactor; 1 µM protein, compound 50 or 250 µM; N/A = no unfolding transition observed in DSF
Observable: ∆Tm [°C] apo (°C)

[
  {
    "Compound": "C=CCOC12Oc3ccc(Oc4ccc(OC)c(C=O)c4)cc3C3C(CCCCO)C(CCCCO)C=C(C(=NOCC)CC1N(CCC)C(=O)OCCOCc1ccccc1)C32 (stereo not shown)",
    "Numeric readout": -1.0
  },
  {
    "Compound": "CNC(C)C(O)c1ccccc1.O=S(=O)(O)O (stereo not shown)",
    "Numeric readout": 0.7
  }
]

a: Cc1ccccc1C(=O)N1CCc2ccccc2C1
b: CCCC(NC(=O)Cn1c(-c2cccs2)n[nH]c1=S)c1ccccc1 (stereo not shown)
Smaller ∆Tm [°C] apo value? Options are a and b When you have decided, please share the label of that item.
a
(a: -1.1 °C, b: -0.4 °C)

---

- Study system: human 15-PGDH (Homo sapiens, UniProt P15428)
- Construct: comprising residues 3–256 of the human HPGD gene (GenBank identifier: 1203982); His6 (GHHHHHH, behind the TEV site) (C, cleaved yes); made in house; host or cells: E. coli BL21(DE3)-R3
- Sequence (P15428 3-256): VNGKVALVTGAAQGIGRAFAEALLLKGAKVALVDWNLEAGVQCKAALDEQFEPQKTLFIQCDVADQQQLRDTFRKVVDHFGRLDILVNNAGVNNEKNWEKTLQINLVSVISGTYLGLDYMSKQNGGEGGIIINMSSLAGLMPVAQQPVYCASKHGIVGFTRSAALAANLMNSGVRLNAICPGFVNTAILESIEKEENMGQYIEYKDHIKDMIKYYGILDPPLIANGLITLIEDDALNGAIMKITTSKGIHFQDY
- Experiment summary: qHTS and 24-point re-test: fluorescence assay of NAD+ reduction to NADH on PGE2 oxidation (PubChem AID 894)
- Type: biochemical
- Condition label: potency in 24-point titrations on re-test; 20 nM 15-PGDH, 1 mM NAD+, 30 µM PGE2, pH 8.0; read-out: qHTS IC50
Observable: IC50 (nM)

# annotated cases, reported IC50 shown
[
  {
    "Compound": "CN(C)C(=O)C(NCCc1c[nH]c2ccccc12)c1ccccc1 (stereo not drawn)",
    "Study system": "human 15-PGDH (Homo sapiens, UniProt P15428)",
    "IC50 [nM]": 501
  },
  {
    "Compound": "CCN(CC)C(=O)c1sc2nc(-c3cccs3)cc(-c3ccc(Cl)cc3)c2c1N",
    "Study system": "human 15-PGDH (Homo sapiens, UniProt P15428)",
    "IC50 [nM]": 10000
  },
  {
    "Compound": "Cc1ccc(CN(c2ccc(C(=O)N3CCc4ccccc4C3)cc2)S(C)(=O)=O)cc1",
    "Study system": "human 15-PGDH (Homo sapiens, UniProt P15428)",
    "IC50 [nM]": 11200
  },
  {
    "Compound": "CC1(C)Oc2c(N=C=O)ccc(Cl)c2C1=O",
    "Study system": "human 15-PGDH (Homo sapiens, UniProt P15428)",
    "IC50 [nM]": 3160
  },
  {
    "Compound": "Cc1ccc(NC(=O)COc2cccc(C=C(C#N)C(=O)Nc3cccc(Cl)c3C)c2)cc1C",
    "Study system": "human 15-PGDH (Homo sapiens, UniProt P15428)",
    "IC50 [nM]": 14100
  },
  {
    "Compound": "C[C@H]1CCCCN1C(=O)CSc1nnc(-c2ccccc2F)o1",
    "Study system": "human 15-PGDH (Homo sapiens, UniProt P15428)",
    "IC50 [nM]": 708
  },
  {
    "Compound": "O=c1oc2c(O)c(O)cc3c(=O)oc4c(O)c(O)cc1c4c23",
    "Study system": "human 15-PGDH (Homo sapiens, UniProt P15428)",
    "IC50 [nM]": 45
  },
  {
    "Compound": "O=C(c1ccc(N2C(=O)C3CC=C(Cl)CC3C2=O)cc1)N1CCCCC1 (stereo not drawn)",
    "Study system": "human 15-PGDH (Homo sapiens, UniProt P15428)",
    "IC50 [nM]": 251
  },
  {
    "Compound": "CCCCCCOCCCCc1ccc(-c2ccc(OCCCCCCC3CC3)nc2)nn1",
    "Study system": "human 15-PGDH (Homo sapiens, UniProt P15428)",
    "IC50 [nM]": 562
  },
  {
    "Compound": "C=CCN1C(=O)[C@@H](CC(=O)Nc2cc(C)ccc2C)SC1=Nc1cc(C)cc(C)c1",
    "Study system": "human 15-PGDH (Homo sapiens, UniProt P15428)",
    "IC50 [nM]": 200
  }
]

a: Cc1ccc(C2=NC(=CN3CCOCC3)C(=O)O2)cc1
b: CC1CCN(C(=O)CCc2ccc(Oc3cc([N+](=O)[O-])cc([N+](=O)[O-])c3)cc2)CC1
Smaller IC50 value? Options are a and b When you have decided, please share the label of that item.
b
(b: 891 nM, a: 2510 nM)
